# assayed system: Tyrosine-protein kinase Yes (Homo sapiens) (UniProt P07947)
# Sequence (P07947 whole entry, looked up): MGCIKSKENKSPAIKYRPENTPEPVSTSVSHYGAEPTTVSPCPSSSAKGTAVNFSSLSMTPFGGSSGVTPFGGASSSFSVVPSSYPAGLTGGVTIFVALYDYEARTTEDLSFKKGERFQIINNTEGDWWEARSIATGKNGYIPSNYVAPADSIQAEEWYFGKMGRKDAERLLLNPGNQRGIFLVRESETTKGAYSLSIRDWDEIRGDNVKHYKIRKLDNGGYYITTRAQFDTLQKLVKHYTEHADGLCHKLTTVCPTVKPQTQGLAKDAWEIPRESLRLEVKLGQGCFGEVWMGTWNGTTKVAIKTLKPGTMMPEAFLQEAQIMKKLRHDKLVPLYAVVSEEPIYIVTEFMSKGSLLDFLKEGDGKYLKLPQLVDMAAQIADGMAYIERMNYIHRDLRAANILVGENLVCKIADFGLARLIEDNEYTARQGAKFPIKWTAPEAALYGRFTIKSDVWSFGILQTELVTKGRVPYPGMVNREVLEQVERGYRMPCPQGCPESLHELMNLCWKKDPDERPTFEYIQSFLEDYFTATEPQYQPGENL
# experiment description: qHTS for small molecule inhibitors of Yes1 kinase: Primary Screen (AID 686947); note: nearly all actives have a fitted effect of over 60% in size
# protocol conditions: Yes1 kinase biochemical qHTS inhibition; series mostly up to 76.9 µM
Inconclusive results are not listed. Activity calls are given as the source filed them. Calls come from the whole dose curve; as a rule, active = well fitted inhibition curve with a large enough effect; inconclusive = small, poorly fitted or top-dose-only effect; inactive = no such curve, though single readings can be large or run the other way.
Labels: 1 = active, 0 = inactive

[[record]]
molecule = "NC(=O)c1sc(-n2cnc3ccccc32)cc1OCc1ccccc1Br"
assayed_system = "Tyrosine-protein kinase Yes (Homo sapiens) (UniProt P07947)"
group = 1

[[record]]
molecule = "Fc1ccc(-c2ncn(C3CCNCC3)c2-c2ccnc(Oc3ccccc3)n2)cc1"
assayed_system = "Tyrosine-protein kinase Yes (Homo sapiens) (UniProt P07947)"
group = 1

[[record]]
molecule = "Nc1ncnc2occ(-c3ccc(NC(=O)Nc4cccc(C(F)(F)F)c4)cc3)c12"
assayed_system = "Tyrosine-protein kinase Yes (Homo sapiens) (UniProt P07947)"
group = 1

[[record]]
molecule = "Cc1ccc(C(=O)NC2CC2)cc1-c1ccc2[nH]ncc2c1"
assayed_system = "Tyrosine-protein kinase Yes (Homo sapiens) (UniProt P07947)"
group = 0

[[record]]
molecule = "COc1cccc(-n2ncc3c(NN=Cc4cccc(F)c4)ncnc32)c1"
assayed_system = "Tyrosine-protein kinase Yes (Homo sapiens) (UniProt P07947)"
group = 1

[[record]]
molecule = "O=C(NCC1CC1)c1ccc(-c2cccc(C(=O)NC3CC3)c2)cc1"
assayed_system = "Tyrosine-protein kinase Yes (Homo sapiens) (UniProt P07947)"
group = 0

[[record]]
molecule = "NC(=O)c1sc(-n2cnc3cc(C(F)(F)F)ccc32)cc1OCc1ccccc1Br"
assayed_system = "Tyrosine-protein kinase Yes (Homo sapiens) (UniProt P07947)"
group = 0

[[record]]
molecule = "NS(=O)(=O)c1cccc(Nc2cc(-c3ccc(F)cc3)[nH]n2)c1"
assayed_system = "Tyrosine-protein kinase Yes (Homo sapiens) (UniProt P07947)"
group = 1

[[record]]
molecule = "CS(=O)(=O)Nc1ccc(N=Cc2c(O)[nH]c3ccccc23)cc1"
assayed_system = "Tyrosine-protein kinase Yes (Homo sapiens) (UniProt P07947)"
group = 1

[[record]]
molecule = "CCOc1nccc2c1nc(-c1nonc1N)n2CC"
assayed_system = "Tyrosine-protein kinase Yes (Homo sapiens) (UniProt P07947)"
group = 0

[[record]]
molecule = "CC1=C(C(=O)Nc2ccc3[nH]ncc3c2)C(c2ccc3ccccc3c2)CC(=O)N1 (stereo unspecified)"
assayed_system = "Tyrosine-protein kinase Yes (Homo sapiens) (UniProt P07947)"
group = 1

[[record]]
molecule = "NS(=O)(=O)c1ccc(N=Nc2c(O)[nH]c3ccc(Cl)cc23)cc1"
assayed_system = "Tyrosine-protein kinase Yes (Homo sapiens) (UniProt P07947)"
group = 1

[[record]]
molecule = "COc1cccc(-n2ncc3c(NN=Cc4ccc(S(C)(=O)=O)cc4)ncnc32)c1"
assayed_system = "Tyrosine-protein kinase Yes (Homo sapiens) (UniProt P07947)"
group = 1

[[record]]
molecule = "COC(=O)Nc1nc2ccc(Oc3ccc(NC(=O)Nc4cc(C(F)(F)F)ccc4F)cc3)cc2s1"
assayed_system = "Tyrosine-protein kinase Yes (Homo sapiens) (UniProt P07947)"
group = 0

[[record]]
molecule = "CS(=O)(=O)CCNCc1ccc(-c2ccc3ncnc(Nc4ccc(OCc5ccccc5)c(Br)c4)c3c2)o1"
assayed_system = "Tyrosine-protein kinase Yes (Homo sapiens) (UniProt P07947)"
group = 1

[[record]]
molecule = "COc1ccc(-c2nn3ncccc3c2-c2ccnc(Nc3ccc(Cl)c(C(F)(F)F)c3)n2)cc1"
assayed_system = "Tyrosine-protein kinase Yes (Homo sapiens) (UniProt P07947)"
group = 1

[[record]]
molecule = "Cc1nnc(-c2cccc(-c3ccc(C(=O)NCC4CC4)cc3)c2)o1"
assayed_system = "Tyrosine-protein kinase Yes (Homo sapiens) (UniProt P07947)"
group = 0

[[record]]
molecule = "COc1c(C(N)=O)cc(-c2ccc(Cl)cc2)cc1-c1ccc(S(N)(=O)=O)cc1"
assayed_system = "Tyrosine-protein kinase Yes (Homo sapiens) (UniProt P07947)"
group = 1

[[record]]
molecule = "CCN1CCC(CC(=O)Nc2n[nH]c3nc(-c4cccs4)c(Br)cc23)CC1"
assayed_system = "Tyrosine-protein kinase Yes (Homo sapiens) (UniProt P07947)"
group = 1

[[record]]
molecule = "CN(c1ccc(NC(=O)NCCN2CCOCC2)cc1)c1ccnc(Nc2ccc(CS(C)(=O)=O)cc2)n1"
assayed_system = "Tyrosine-protein kinase Yes (Homo sapiens) (UniProt P07947)"
group = 1

[[record]]
molecule = "COc1ccc(-c2cc(-c3cn[nH]c3-c3ccccn3)ccn2)cc1"
assayed_system = "Tyrosine-protein kinase Yes (Homo sapiens) (UniProt P07947)"
group = 1

[[record]]
molecule = "Fc1ccc(-c2nn3ncccc3c2-c2ccnc(Nc3ccc4c(c3)OCCO4)n2)cc1"
assayed_system = "Tyrosine-protein kinase Yes (Homo sapiens) (UniProt P07947)"
group = 1

[[record]]
molecule = "CN1CCC(n2cnc(-c3ccc(F)cc3)c2-c2ccnc(NCCO)n2)CC1"
assayed_system = "Tyrosine-protein kinase Yes (Homo sapiens) (UniProt P07947)"
group = 0

[[record]]
molecule = "O=S1CCN(Cc2ccc(-c3ccc4ncnc(Nc5ccc(OCc6cccc(F)c6)c(Cl)c5)c4c3)o2)CC1"
assayed_system = "Tyrosine-protein kinase Yes (Homo sapiens) (UniProt P07947)"
group = 1

[[record]]
molecule = "CCS(=O)(=O)c1ccc(OC)c(Nc2ncc(-c3cccc(OC)c3)o2)c1"
assayed_system = "Tyrosine-protein kinase Yes (Homo sapiens) (UniProt P07947)"
group = 1

[[record]]
molecule = "OCc1ccc(-c2nc(-c3ccc4c(c3)OCO4)c(-c3ccccn3)[nH]2)cc1"
assayed_system = "Tyrosine-protein kinase Yes (Homo sapiens) (UniProt P07947)"
group = 0

[[record]]
molecule = "CC(Oc1cc(-n2cnc3ccc(OCC4CCN(C)CC4)cc32)sc1C(N)=O)c1ccccc1Cl (stereo unspecified)"
assayed_system = "Tyrosine-protein kinase Yes (Homo sapiens) (UniProt P07947)"
group = 1

[[record]]
molecule = "COc1ccc(-c2nn3ncccc3c2-c2ccnc(Nc3ccc(F)c(F)c3)n2)cc1"
assayed_system = "Tyrosine-protein kinase Yes (Homo sapiens) (UniProt P07947)"
group = 1

[[record]]
molecule = "Cc1ccc(C(=O)NC2CCCCC2)cc1-c1ccc(C(=O)NCC2CC2)cc1"
assayed_system = "Tyrosine-protein kinase Yes (Homo sapiens) (UniProt P07947)"
group = 0

[[record]]
molecule = "COc1cccc(Nc2nccc(-c3cnn4ncccc34)n2)c1"
assayed_system = "Tyrosine-protein kinase Yes (Homo sapiens) (UniProt P07947)"
group = 0

[[record]]
molecule = "COC(=O)Nc1nc2ccc(Oc3ccc(NC(=O)Nc4cccc(Cl)c4)cc3)cc2[nH]1"
assayed_system = "Tyrosine-protein kinase Yes (Homo sapiens) (UniProt P07947)"
group = 0

[[record]]
molecule = "CCn1c(-c2nonc2N)nc2c(N3CCCC3)nccc21"
assayed_system = "Tyrosine-protein kinase Yes (Homo sapiens) (UniProt P07947)"
group = 0

[[record]]
molecule = "CS(=O)(=O)CCNCc1coc(-c2ccc3ncnc(Nc4ccc(OCc5ccccc5)cc4)c3c2)c1"
assayed_system = "Tyrosine-protein kinase Yes (Homo sapiens) (UniProt P07947)"
group = 1

[[record]]
molecule = "Nc1ncc(-c2cccc(S(N)(=O)=O)c2)c2scc(-c3ccc(F)c(Cl)c3)c12"
assayed_system = "Tyrosine-protein kinase Yes (Homo sapiens) (UniProt P07947)"
group = 1

[[record]]
molecule = "C=C1C(=C/C=C2\\CCC[C@]3(C)[C@@H]([C@H](C)/C=C/[C@H](C)C(C)C)CC[C@@H]23)C[C@@H](O)C[C@@H]1O"
assayed_system = "Tyrosine-protein kinase Yes (Homo sapiens) (UniProt P07947)"
group = 0

[[record]]
molecule = "Fc1ccc(-c2ncn(C3CCNCC3)c2-c2ccnc(Oc3cccc(C(F)(F)F)c3)n2)cc1"
assayed_system = "Tyrosine-protein kinase Yes (Homo sapiens) (UniProt P07947)"
group = 0

[[record]]
molecule = "CCN(CC)S(=O)(=O)c1ccc(OC)c(Nc2ncc(-c3ccccc3)o2)c1"
assayed_system = "Tyrosine-protein kinase Yes (Homo sapiens) (UniProt P07947)"
group = 1

[[record]]
molecule = "c1ccc(-c2nc3n(c2-c2ccc4c(c2)OCO4)CCC3)nc1"
assayed_system = "Tyrosine-protein kinase Yes (Homo sapiens) (UniProt P07947)"
group = 0

[[record]]
molecule = "Cc1cc(O)cc(C)c1C=Cc1cncc(C(N)=O)c1"
assayed_system = "Tyrosine-protein kinase Yes (Homo sapiens) (UniProt P07947)"
group = 1

[[record]]
molecule = "COc1ccc(CNC(=O)c2ccc(-c3cc(-c4nnc(C)o4)ccc3C)cc2)cc1"
assayed_system = "Tyrosine-protein kinase Yes (Homo sapiens) (UniProt P07947)"
group = 0

[[record]]
molecule = "O=C1N=c2ccc(N=Cc3c(O)[nH]c4ccccc34)cc2=N1"
assayed_system = "Tyrosine-protein kinase Yes (Homo sapiens) (UniProt P07947)"
group = 1


meta.source: PubChem BioAssay (NCATS)
